- System: NALL-1
- methodDescription: selective drug sensitivity score (sDSS, relative to normal bone marrow) (sDSS (score)); higher = more potent and effective on the cell line relative to normal bone marrow cells;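 also: ALL cell lines in 384-well plates, five doses spanning 10,000-fold, each plate scaled between vehicle and 100 µmol/L benzalkonium chloride controls, sDSS an adapted area-under-curve metric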
- testParameters: 72 h
Assign classes using reported selective drug sensitivity score values and the ranges class A = under -4, class B = from -4 up to -0.06, class C = -0.06 and over, please.

Which selective drug sensitivity score band matches CC(=O)O[C@H]1C(=O)[C@@]2(C)[C@H]([C@H](OC(=O)c3ccccc3)[C@]3(O)C[C@H](OC(=O)[C@H](O)[C@@H](NC(=O)c4ccccc4)c4ccccc4)C(C)=C1C3(C)C)[C@]1(OC(C)=O)CO[C@@H]1C[C@@H]2O [Paclitaxel] (top concentration 1000 nM) ?
class C

Which selective drug sensitivity score band matches COc1cc(Nc2ncc3c(n2)-c2ccc(Cl)cc2C(c2c(F)cccc2OC)=NC3)ccc1C(=O)O [Alisertib] (top concentration 10000 nM) ?
class C

Which selective drug sensitivity score band matches C[C@H]1C[C@@H](n2c(Nc3ccc(OC(F)(F)F)cc3)nc3cc(CCC(=O)O)ccc32)CC(C)(C)C1 (top concentration 10000 nM) ?
class B

Which selective drug sensitivity score band matches CCN1CCN(c2ccc(Nc3cc(N(C)C(=O)Nc4c(Cl)c(OC)cc(OC)c4Cl)ncn3)cc2)CC1 [Infigratinib] (top concentration 1000 nM) ?
class C

Which selective drug sensitivity score band matches O=C(Nc1ccc2[nH]nc(-c3ccncc3)c2c1)[C@@H]1CCN(CC(=O)N2CCN(c3ccc(-c4ncccn4)cc3)CC2)C1 (top concentration 10000 nM) ?
class A

Which selective drug sensitivity score band matches Cc1nc(NC(=O)N2CCC[C@H]2C(N)=O)sc1-c1ccnc(C(C)(C)C(F)(F)F)c1 [Alpelisib] (top concentration 2500 nM) ?
class B

Which selective drug sensitivity score band matches CCS(=O)(=O)N1CCN(c2ccc(Nc3ncc(C(N)=O)c(NC4CC4)n3)cc2)CC1 [Cerdulatinib] (top concentration 10000 nM) ?
class A

Which selective drug sensitivity score band matches CNC(=O)c1cccc(-c2ccc3c(N4CCOC[C@@H]4C)nc(N4CCOC[C@@H]4C)nc3n2)c1 [Vistusertib] (top concentration 10000 nM) ?
class B

Which selective drug sensitivity score band matches CO[C@H]1C[C@@H]2CC[C@@H](C)[C@@](O)(O2)C(=O)C(=O)N2CCCC[C@H]2C(=O)O[C@H]([C@H](C)C[C@@H]2CC[C@@H](O)[C@H](OC)C2)CC(=O)[C@H](C)/C=C(\C)[C@@H](O)[C@@H](OC)C(=O)[C@H](C)C[C@H](C)/C=C/C=C/C=C/1C [Sirolimus] (top concentration 100 nM) ?
class B

Which selective drug sensitivity score band matches COc1cccc2c1C(=O)c1c(O)c3c(c(O)c1C2=O)C[C@@](O)(/C(CO)=N/NC(=O)CCCCCN1C(=O)C=CC1=O)C[C@@H]3O[C@H]1C[C@H](N)[C@H](O)[C@H](C)O1 [Aldoxorubicin] (top concentration 1000 nM) ?
class B

---

- Test system: 380
- methodDescription: selective drug sensitivity score (sDSS, relative to normal bone marrow) (sDSS (score)); higher = more potent and effective on the cell line relative to normal bone marrow cells
- testParameters: 72 h
parameter: selective drug sensitivity score
Give bare numbers.

Study these solved cases before continuing.
In one line, give reported selective drug sensitivity score of the entry O=c1ncn2nc(Sc3ccc(F)cc3F)ccc2c1-c1c(Cl)cccc1Cl [Neflamapimod] (top concentration 10000 nM) .
4.7

In one line, give reported selective drug sensitivity score of the entry COc1cc2ncnc(Nc3ccc(F)c(Cl)c3)c2cc1OCCCN1CCOCC1 [Gefitinib] (top concentration 10000 nM) .
-3.04

In one line, give reported selective drug sensitivity score of the entry O=C(NCc1ccncc1)C12CC3CC(C1)CC(c1ccc(Cl)cc1)(C3)C2 (top concentration 50000 nM) .
0.38

Record selective drug sensitivity score per entry; entries follow.
1. CC(C)[C@@H](CS(=O)(=O)C(C)C)N1C(=O)[C@@](C)(CC(=O)O)C[C@H](c2cccc(Cl)c2)[C@H]1c1ccc(Cl)cc1 [AMG-232] (top concentration 10000 nM)
2. CC[C@@]1(O)C(=O)OCc2c1cc1n(c2=O)Cc2cc3c(CN(C)C)c(O)ccc3nc2-1 [Topotecan] (top concentration 10000 nM)
3. CC1(C)C(C(=O)Nc2ccc(S(=O)(=O)c3ccc(NC(=O)C4C(C)(C)C4(C)C)cc3)cc2)C1(C)C [BRD7116] (top concentration 10000 nM)

1: 13; 2: 27.1; 3: -0.24
